biological target: human alpha-7 nAChR (Homo sapiens, UniProt P36544); construct: expressed in transfected cells; host or cells: Xenopus laevis oocytes (cRNA injection); assay: Two-electrode voltage clamp of alpha-7 nAChR expressed in Xenopus oocytes (net charge); format: cell-based; conditions: compound together with choline or ACh; includes PAM and ago-PAM activity; area under the curve of current vs. time
Sequence (P36544 23-502): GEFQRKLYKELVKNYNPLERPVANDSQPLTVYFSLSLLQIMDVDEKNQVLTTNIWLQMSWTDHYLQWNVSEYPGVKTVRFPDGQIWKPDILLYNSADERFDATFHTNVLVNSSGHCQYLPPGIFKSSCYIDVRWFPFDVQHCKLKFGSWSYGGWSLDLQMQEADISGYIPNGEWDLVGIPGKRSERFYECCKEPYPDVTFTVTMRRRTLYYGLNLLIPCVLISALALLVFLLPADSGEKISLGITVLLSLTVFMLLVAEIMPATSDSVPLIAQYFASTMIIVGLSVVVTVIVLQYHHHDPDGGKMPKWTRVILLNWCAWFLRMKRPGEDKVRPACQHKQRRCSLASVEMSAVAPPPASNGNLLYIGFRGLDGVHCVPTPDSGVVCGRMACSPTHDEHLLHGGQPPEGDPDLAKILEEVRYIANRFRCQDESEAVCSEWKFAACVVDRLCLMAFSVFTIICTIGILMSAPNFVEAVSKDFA
recorded.metric: Charge +C

# input Provide the documented Charge +C with human alpha-7 nAChR (Homo sapiens, UniProt P36544) as the system for CCNS(=O)(=O)c1ccc2c(c1)[C@H]1C=CC[C@H]1[C@@H](c1ccc(Br)cc1)N2 [Compound 114]
# output Inactive

# input Provide the documented Charge +C with human alpha-7 nAChR (Homo sapiens, UniProt P36544) as the system for NS(=O)(=O)c1ccc2c(c1)[C@H]1C=CC[C@H]1CN2 (stereo in doubt) [Compound 33]
# output Inactive

# input Provide the documented Charge +C with human alpha-7 nAChR (Homo sapiens, UniProt P36544) as the system for CCCNS(=O)(=O)c1ccc2c(c1)[C@H]1C=CC[C@H]1[C@H](c1ccc(Br)cc1)N2 (stereo in doubt) [Compound 106]
# output Inactive

###

molecular target: human alpha-7 nAChR (Homo sapiens); construct: expressed in transfected cells; host or cells: Xenopus laevis oocytes (cRNA injection); assay: Two-electrode voltage clamp of alpha-7 nAChR expressed in Xenopus oocytes (net charge); assay type: cell-based; conditions: compound alone acting as an allosteric agonist; area under the curve of current vs. time
recorded.metric: Charge Alone

# input Which Charge Alone is listed for "O=S(=O)(c1ccc2c(c1)[C@@H]1C=CC[C@@H]1[C@H](c1ccc(Br)cc1)N2)N1CCCC1" ?
# output Inactive

# input Which Charge Alone is listed for CCCNS(=O)(=O)c1ccc2c(c1)[C@H]1C=CC[C@H]1[C@@H](c1ccccc1)N2 (stereo in doubt) ?
# output Inactive

# input Which Charge Alone is listed for CC(C)(C)NS(=O)(=O)c1ccc2c(c1)[C@H]1C=CC[C@H]1[C@@H](c1ccc(Br)cc1)N2 (stereo in doubt) ?
# output Inactive

###

Molecular target: human alpha-7 nAChR (Homo sapiens, UniProt P36544)
Construct: expressed in transfected cells; host or cells: Xenopus laevis oocytes (cRNA injection)
Test: Two-electrode voltage clamp of alpha-7 nAChR expressed in Xenopus oocytes (net charge)
Assay type: cell-based
Details: compound together with choline or ACh; includes PAM and ago-PAM activity; area under the curve of current vs. time
Method: The human alpha-7 nAChR receptor clone was obtained from Dr. Jon Lindstrom {University of Pennsylvania, Philadelphia, Pa.), aid the RIC-3 clone from Dr. Millet Treinin (Hebrew University, Jerusalem, Israel) for the purpose of co-injection with a7 to improve the level and speed of receptor expression (Halevi et al., 2003). After linearization and purification of cloned cDNA's, RNA, transcripts were prepared rising the appropriate mMessage mMachine kit tiom Ambion (Austin, Tex.). […]
recorded.metric: Charge +C

# input Which Charge +C is listed for CC(C)(C)NC(=O)Oc1ccc([C@H]2Nc3ccc(S(N)(=O)=O)cc3[C@H]3C=CC[C@H]32)cc1 (stereo in doubt) [Compound 65] ?
# output 740

# input Which Charge +C is listed for NS(=O)(=O)c1ccc2c(c1)[C@H]1OCC[C@H]1[C@@H](c1ccc(Br)cc1)N2 (stereo in doubt) [Compound 3] ?
# output Inactive

# input Which Charge +C is listed for O=S(=O)(c1ccc2c(c1)[C@H]1C=CC[C@H]1[C@@H](c1ccc(Br)cc1)N2)N1CCC1 [Compound 54] ?
# output Inactive

# input Which Charge +C is listed for O=S(=O)(NCC1CC1)c1ccc2c(c1)[C@H]1C=CC[C@H]1[C@@H](c1ccc(Br)cc1)N2 (stereo in doubt) [Compound 105] ?
# output Inactive

# input Which Charge +C is listed for NS(=O)(=O)c1ccc2c(c1)[C@H]1C=CC[C@H]1[C@@H](c1ccoc1)N2 (stereo in doubt) [Compound 14] ?
# output Inactive

Switching to the query record.
# input Which Charge +C is listed for NS(=O)(=O)c1ccc2c(c1)N[C@H](c1ccc(Br)cc1)[C@@H]1CC=C[C@H]21 (stereo in doubt) [Compound 10] ?
# output Inactive

Reference for the values: patent US11299496B2
